Source of measurements: ChEMBL document CHEMBL3217730

MEASURED TARGET: UniProt B4URF0
Sequence (B4URF0 whole entry): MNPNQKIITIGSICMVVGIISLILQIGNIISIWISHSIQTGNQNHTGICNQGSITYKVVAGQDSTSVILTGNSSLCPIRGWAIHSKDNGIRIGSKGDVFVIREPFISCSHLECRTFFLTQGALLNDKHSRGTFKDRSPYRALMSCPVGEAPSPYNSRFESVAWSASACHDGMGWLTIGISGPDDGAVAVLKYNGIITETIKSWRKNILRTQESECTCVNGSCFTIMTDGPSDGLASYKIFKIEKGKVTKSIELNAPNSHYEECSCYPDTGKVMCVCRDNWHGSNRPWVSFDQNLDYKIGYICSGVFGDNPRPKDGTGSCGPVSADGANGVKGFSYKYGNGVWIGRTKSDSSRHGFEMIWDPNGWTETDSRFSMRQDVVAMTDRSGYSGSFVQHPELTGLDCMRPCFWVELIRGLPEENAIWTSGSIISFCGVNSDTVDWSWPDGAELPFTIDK
TEST DETAILS: Inhibition of Influenza virus neuraminidase A
Design: species or system unidentified influenza virus
SETTINGS: read-out: IC50
MEASUREMENT LABEL: log10 of IC50 (log10 of the value in µM)
Scale type: logarithmic (base 10). Underlying IC50 unit: µM.

| MOLECULE | log10 of IC50 |
| --- | --- |
| CC[C@@H](C)O[C@@H]1C=C(C(=O)O)C[C@H](NC(=N)N)[C@H]1NC(C)=O | -0.30 |

Ask | Read the entry CCCCO[C@@H]1C=C(C(=O)O)C[C@H](N=C(N)N)[C@H]1NC(C)=O and write its reported log10 of IC50.
Reply | 0.48

Ask | Indicate its recorded log10 of IC50; the molecule in question is CCC(CC)NC(=O)[C@@H](NC(C)=O)[C@H]1CC(C(=O)O)C[C@@H]1NC(=N)N (some centres undefined)
Reply | -1.22

Ask | Specify measured log10 of IC50 for CCCC[C@@H](NC(C)=O)[C@@H]1CC(C(=O)O)C[C@H]1NC(=N)N (some centres undefined) .
Reply | 1.16

Ask | Assign log10 of IC50 to the following record: CCCN(CCC)C(=O)N1C[C@@H](N)[C@@H](C(=O)O)C1
Reply | 1.51

Ask | Identify log10 of IC50 associated with the molecule CC(C)N(CCN)C(=O)N1C[C@@H](N)[C@@H](C(=O)O)C1
Reply | 1.66

Ask | Fill in log10 of IC50 for record CCN(CC)C(=O)N1C[C@@H](N)[C@@H](C(=O)O)C1
Reply | 1.40

Ask | Specify measured log10 of IC50 for CC[C@H](CCc1ccccc1)O[C@@H]1C=C(C(=O)O)C[C@H](N)[C@H]1NC(C)=O .
Reply | 1.08

Ask | Tell me log10 of IC50 reported for CCCCCCC[C@H](CC)O[C@@H]1C=C(C(=O)O)C[C@H](N)[C@H]1NC(C)=O
Reply | 0.00

Ask | # return recorded log10 of IC50 for input CC(=O)N[C@H]1[C@H](O)C=C(C(=O)O)C[C@@H]1N
Reply | 3.80

Ask | Write down log10 of IC50 measured for item CCCCO[C@@H]1C=C(C(=O)O)C[C@H](N)[C@H]1NC(C)=O
Reply | 2.48

Ask | Look up and state reported log10 of IC50 for CC(C)N(CCc1ccccn1)C(=O)N1C[C@@H](N)[C@@H](C(=O)O)C1
Reply | 0.11

Ask | Quickly give me recorded log10 of IC50 for CC(C)N(CCCCCO)C(=O)N1C[C@@H](N)[C@@H](C(=O)O)C1
Reply | 0.30

Ask | Name the recorded log10 of IC50 of the molecule listed here: CCCCCCCO[C@@H]1C=C(C(=O)O)C[C@H](N)[C@H]1NC(C)=O
Reply | 2.43
